Quick reference for melting point among some compounds

Consider the worked cases shown below.
COc1cccc([C@H]2O[C@H](CC(=O)N3CCC(O)(CC(=O)O)CC3)C(=O)N(CC(C)(C)C)c3ccc(Cl)cc32)c1OC has a reported melting point of 163 to 166 °C

COc1cccc([C@H]2O[C@H](CC(=O)NS(C)(=O)=O)C(=O)N(CC(C)(C)CO)c3ccc(Cl)cc32)c1OC yielded melting point of 221 to 223 °C

Measured melting point of COc1cccc([C@H]2O[C@H](CC(=O)N[C@H](C(=O)O)C(C)C)C(=O)N(CC(C)(C)C)c3ccc(Cl)cc32)c1OC : 129 to 132 °C

Continuing:
Form field melting point, entry COc1cccc([C@H]2O[C@H](CC(=O)NCP(=O)(O)O)C(=O)N(CC(C)(C)C)c3ccc(Cl)cc32)c1OC : 152 to 155 °C
